# assayed-target: T1, human ST2L extracellular domain with C-terminal His6 tag (human, UniProt Q01638 19-328)
# T1 construct: also called huST2L-ECD; ST2L-ECD
# T1 sequence: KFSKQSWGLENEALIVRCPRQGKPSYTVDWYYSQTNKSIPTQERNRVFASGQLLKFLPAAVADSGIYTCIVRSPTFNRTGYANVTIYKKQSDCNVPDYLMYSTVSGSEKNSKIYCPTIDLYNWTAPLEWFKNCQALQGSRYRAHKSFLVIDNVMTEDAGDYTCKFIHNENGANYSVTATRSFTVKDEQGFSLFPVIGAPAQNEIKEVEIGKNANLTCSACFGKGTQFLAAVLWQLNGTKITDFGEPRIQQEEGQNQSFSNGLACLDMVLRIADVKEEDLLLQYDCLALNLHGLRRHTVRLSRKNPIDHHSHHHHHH
# assay-details: SPR, mAb captured, ST2L-ECD in solution
Quick reference for kon among some binders

{"columns": ["binder", "output-unit", "kon"],
 "data": [
  ["STLM228 (antibody, V domains shown, VH STLH201 + VL STLL276) VH: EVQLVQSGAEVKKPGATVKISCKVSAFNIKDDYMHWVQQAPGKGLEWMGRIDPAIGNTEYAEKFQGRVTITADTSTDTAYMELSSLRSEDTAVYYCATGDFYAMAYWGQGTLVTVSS VL: DIQMTQSPSTLSASVGDRVTITCITNTDIDDVIHWYQQKPGKAPKLLIYEGNTLRPGVPSRFSGSGSGTEFTLTISSLQPDDFATYYCLQSDNMLTFGQGTKLEIK", "M⁻¹ s⁻¹", "2.01e+07"],
  ["STLM221 (antibody, V domains shown, frameworks VH3-23 / Vk-L6) VH: EVQLLESGGGLVQPGGSLRLSCAASGFTFSIYDMFWVRQAPGKGLEWVSYIRGEGGDTNYADSVKGRFTISRDNSKNTLYLQMNSLRAEDTAVYYCARDPWSTEGSFFVLDYWGQGTLVTVSS VL: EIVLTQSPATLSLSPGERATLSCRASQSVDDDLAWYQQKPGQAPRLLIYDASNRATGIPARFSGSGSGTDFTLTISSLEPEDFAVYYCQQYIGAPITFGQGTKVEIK", "M⁻¹ s⁻¹", "2.73e+06"],
  ["STLM218 (antibody, V domains shown, frameworks VH3-23 / Vk-L6) VH: EVQLLESGGGLVQPGGSLRLSCAASGFTFSVDSMFWVRQAPGKGLEWVSSIEGNGGATYYADSVKGRFTISRDNSKNTLYLQMNSLRAEDTAVYYCARDPWSTEGSFFVLDYWGQGTLVTVSS VL: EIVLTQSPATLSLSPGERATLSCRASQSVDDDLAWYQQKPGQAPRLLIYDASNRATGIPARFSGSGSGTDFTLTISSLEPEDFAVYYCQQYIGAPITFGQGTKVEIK", "M⁻¹ s⁻¹", "9.89e+06"],
  ["STLM213 (antibody, V domains shown, frameworks VH3-23 / Vk-L6) VH: EVQLLESGGGLVQPGGSLRLSCAASGFTFSFYDMIWVRQAPGKGLEWVSTIRGEGGDTNYADSVKGRFTISRDNSKNTLYLQMNSLRAEDTAVYYCARDPWSTEGSFFVLDYWGQGTLVTVSS VL: EIVLTQSPATLSLSPGERATLSCRASQSVDDDLAWYQQKPGQAPRLLIYDASNRATGIPARFSGSGSGTDFTLTISSLEPEDFAVYYCQQYIDAPLTFGQGTKVEIK", "M⁻¹ s⁻¹", "7.54e+06"],
  ["STLM124 (antibody, V domains shown, frameworks VH3-23 / Vk-L6) VH: EVQLLESGGGLVQPGGSLRLSCAASGFTFSIYDMIWVRQAPGKGLEWVSTIKGEGGGTYYADSVKGRFTISRDNSKNTLYLQMNSLRAEDTAVYYCARDPWSTEGSFFVLDYWGQGTLVTVSS VL: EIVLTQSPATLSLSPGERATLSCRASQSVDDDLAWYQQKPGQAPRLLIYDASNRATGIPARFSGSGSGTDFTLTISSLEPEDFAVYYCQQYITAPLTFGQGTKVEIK", "M⁻¹ s⁻¹", "1.65e+07"]
]}
